Assay: Pharmacokinetic profile in rats
Parameters: species or system Sprague Dawley rats
Settings: rat, in vivo, po, 10 mg/kg
Experimental: Compounds listed in Table D are administered as a solution orally via gavage at 10 mg/kg to Sprague Dawley rats at a dosing volume of 10 ml/kg. Samples are collected via a surgically implanted cannula at selected timepoints deemed necessary to characterize pharmacokinetic parameters. Blood samples are placed on wet ice and spun down to plasma within 5 minutes of timepoint collection. Plasma samples are frozen until bioanalytical analysis. […]
endpoint.name: AUC (nM·h/mg/kg)
Please state the figure in nM·h/mg/kg; there is no need to write the unit.

Sample answers from the record:
{"columns": ["compound", "endpoint.name", "reading.unit", "experimental.value"],
 "data": [
  ["CCC[C@H](NC(=O)[C@@H]1C[C@@]2(CN1C(=O)[C@@H](NC(=O)[C@@H](NC(=O)[C@@H]1CCCCN1C(C)C)C1CCCCC1)C(C)(C)C)C(C)(C)C21CCC1)C(=O)C(=O)NC(C)C", "AUC", "nM·h/mg/kg", 416],
  ["CCCC(NC(=O)[C@@H]1C[C@@]2(CN1C(=O)[C@@H](NC(=O)[C@@H](NC(=O)C1CCN1C(C)(C)C)C1CCCCC1)C(C)(C)C)C(C)(C)C21CCC1)C(=O)C(=O)NC1CC1 (stereo partly shown)", "AUC", "nM·h/mg/kg", 274],
  ["CCC[C@H](NC(=O)[C@@H]1C[C@@]2(CN1C(=O)[C@@H](NC(=O)[C@@H](NC(=O)[C@@H]1CCN1C(C)C)C1CCCCC1)C(C)(C)C)C(C)(C)C21CCC1)C(=O)C(=O)NC1CC1", "AUC", "nM·h/mg/kg", 241]
]}

According to the records, this compound CCC[C@H](NC(=O)[C@@H]1C[C@@]2(CN1C(=O)[C@@H](NC(=O)[C@@H](NC(=O)[C@H]1CCCN(CC)C1)C(C)(C)C)C(C)(C)C)C(C)(C)C21CCC1)C(=O)C(=O)NC1CC1 displays AUC of 203

According to the records, this compound CCC[C@H](NC(=O)[C@@H]1C[C@@]2(CN1C(=O)[C@@H](NC(=O)[C@@H](NC(=O)[C@@H]1CCCN(CC)C1)C1CCCCC1)C(C)(C)C)C(C)(C)C21CCC1)C(=O)C(=O)NC1CC1 displays AUC of 474

According to the records, this compound CCC[C@H](NC(=O)C1C[C@@]2(CN1C(=O)[C@@H](NC(=O)[C@@H](NC(=O)[C@@H]1CCCN1CC)C1CCCCC1)C(C)(C)C)C(C)(C)C21CCC1)C(=O)C(=O)NC1CC1 (stereo partly shown) displays AUC of 460

According to the records, this compound CCC[C@H](NC(=O)[C@@H]1C[C@@]2(CN1C(=O)[C@@H](NC(=O)[C@@H](NC(=O)[C@@H]1CCCCN1C(C)C)C(C)(C)C)C(C)(C)C)C(C)(C)C21CCC1)C(=O)C(=O)NC1CC1 displays AUC of 523
